- MEASURED ON: purified human, His-tagged PRC2 complex (Homo sapiens (Human))
- Sequence (Q15910 whole entry): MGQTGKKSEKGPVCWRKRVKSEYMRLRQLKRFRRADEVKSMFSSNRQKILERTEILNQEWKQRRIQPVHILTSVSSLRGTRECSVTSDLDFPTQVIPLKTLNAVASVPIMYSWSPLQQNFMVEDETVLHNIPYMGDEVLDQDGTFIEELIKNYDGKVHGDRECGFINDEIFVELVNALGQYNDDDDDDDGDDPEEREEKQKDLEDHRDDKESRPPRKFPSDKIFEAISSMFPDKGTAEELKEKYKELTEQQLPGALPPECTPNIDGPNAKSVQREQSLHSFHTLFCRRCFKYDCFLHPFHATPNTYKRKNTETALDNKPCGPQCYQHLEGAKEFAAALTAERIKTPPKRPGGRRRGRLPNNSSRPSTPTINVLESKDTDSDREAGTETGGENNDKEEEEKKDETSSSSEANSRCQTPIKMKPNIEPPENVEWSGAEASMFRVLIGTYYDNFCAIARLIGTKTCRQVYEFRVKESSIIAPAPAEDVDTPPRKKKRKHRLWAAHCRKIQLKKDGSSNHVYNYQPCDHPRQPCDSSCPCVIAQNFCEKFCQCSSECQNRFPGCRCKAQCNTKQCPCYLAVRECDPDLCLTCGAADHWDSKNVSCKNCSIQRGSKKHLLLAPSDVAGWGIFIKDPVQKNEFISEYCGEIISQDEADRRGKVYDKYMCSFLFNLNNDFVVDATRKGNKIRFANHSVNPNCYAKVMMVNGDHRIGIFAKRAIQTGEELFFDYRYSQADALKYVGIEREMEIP
- Sequence (O75530 whole entry): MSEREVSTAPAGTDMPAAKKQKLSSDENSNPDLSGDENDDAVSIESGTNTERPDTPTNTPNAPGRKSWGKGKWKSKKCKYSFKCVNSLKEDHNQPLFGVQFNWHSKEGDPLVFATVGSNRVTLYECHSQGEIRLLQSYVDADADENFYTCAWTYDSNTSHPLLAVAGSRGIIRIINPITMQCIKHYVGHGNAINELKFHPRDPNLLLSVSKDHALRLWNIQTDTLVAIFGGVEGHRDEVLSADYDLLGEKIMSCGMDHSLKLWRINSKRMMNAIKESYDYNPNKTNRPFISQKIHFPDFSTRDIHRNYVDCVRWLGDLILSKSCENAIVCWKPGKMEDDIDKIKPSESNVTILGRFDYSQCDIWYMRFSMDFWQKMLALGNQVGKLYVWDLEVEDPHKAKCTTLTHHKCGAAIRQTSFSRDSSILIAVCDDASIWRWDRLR
- Sequence (Q15022 whole entry partner): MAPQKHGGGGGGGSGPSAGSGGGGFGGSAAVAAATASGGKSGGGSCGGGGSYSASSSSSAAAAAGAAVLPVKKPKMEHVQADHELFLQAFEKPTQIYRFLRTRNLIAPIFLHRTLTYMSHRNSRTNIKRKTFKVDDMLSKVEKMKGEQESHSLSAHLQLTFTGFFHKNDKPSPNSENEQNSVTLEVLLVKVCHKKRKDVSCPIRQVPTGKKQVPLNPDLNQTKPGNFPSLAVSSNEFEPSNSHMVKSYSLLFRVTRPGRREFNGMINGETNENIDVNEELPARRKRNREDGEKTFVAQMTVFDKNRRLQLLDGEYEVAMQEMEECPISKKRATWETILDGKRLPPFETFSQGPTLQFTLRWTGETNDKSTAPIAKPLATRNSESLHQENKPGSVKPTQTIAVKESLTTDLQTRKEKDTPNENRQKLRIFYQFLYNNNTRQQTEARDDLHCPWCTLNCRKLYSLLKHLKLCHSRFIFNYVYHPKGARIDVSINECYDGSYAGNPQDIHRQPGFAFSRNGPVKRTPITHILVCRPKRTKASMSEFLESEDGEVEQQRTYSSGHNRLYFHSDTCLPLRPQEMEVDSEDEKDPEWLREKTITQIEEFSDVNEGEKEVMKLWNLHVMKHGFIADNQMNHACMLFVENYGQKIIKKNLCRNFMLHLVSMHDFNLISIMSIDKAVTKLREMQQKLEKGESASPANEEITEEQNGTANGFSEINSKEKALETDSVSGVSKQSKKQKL
- Sequence (Q6ZN18 whole entry partner): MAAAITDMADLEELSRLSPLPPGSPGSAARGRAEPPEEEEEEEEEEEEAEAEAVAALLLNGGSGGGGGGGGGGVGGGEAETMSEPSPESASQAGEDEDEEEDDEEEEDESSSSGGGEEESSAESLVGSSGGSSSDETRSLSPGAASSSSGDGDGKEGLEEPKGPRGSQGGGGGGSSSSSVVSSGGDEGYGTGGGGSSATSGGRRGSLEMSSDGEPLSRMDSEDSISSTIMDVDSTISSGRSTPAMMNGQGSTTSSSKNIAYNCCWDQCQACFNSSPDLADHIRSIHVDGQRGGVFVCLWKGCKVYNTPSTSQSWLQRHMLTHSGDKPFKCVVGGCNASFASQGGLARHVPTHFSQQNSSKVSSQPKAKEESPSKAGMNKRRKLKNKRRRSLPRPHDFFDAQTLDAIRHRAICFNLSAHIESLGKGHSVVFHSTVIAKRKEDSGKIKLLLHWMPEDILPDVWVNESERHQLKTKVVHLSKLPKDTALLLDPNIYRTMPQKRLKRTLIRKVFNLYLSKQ
- Sequence (Q09028 whole entry partner): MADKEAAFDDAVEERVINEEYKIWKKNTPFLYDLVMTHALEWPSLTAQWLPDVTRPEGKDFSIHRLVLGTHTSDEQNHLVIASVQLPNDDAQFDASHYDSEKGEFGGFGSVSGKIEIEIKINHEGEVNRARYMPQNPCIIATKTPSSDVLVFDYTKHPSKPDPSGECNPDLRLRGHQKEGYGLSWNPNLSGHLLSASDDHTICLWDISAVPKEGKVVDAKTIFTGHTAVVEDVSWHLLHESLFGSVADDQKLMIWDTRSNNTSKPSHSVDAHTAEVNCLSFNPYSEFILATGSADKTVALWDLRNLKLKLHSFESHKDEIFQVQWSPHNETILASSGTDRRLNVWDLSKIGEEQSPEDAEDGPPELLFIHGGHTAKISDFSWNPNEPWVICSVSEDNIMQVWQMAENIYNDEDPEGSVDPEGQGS
- ASSAY METHOD TEXT: Hot Spot HMT assay: inhibition of PRC2 enzymatic activity (transfer of tritiated methyl from SAM to core histone H3)
- Assay type: biochemical
- CONDITION SET: 10 nM PRC2 complex, 0.05 mg/ml core histone H3, 1 uM 3H-SAM, 1 hr at 30° C.; read-out: IC50, Inhibition of PRC2-mediated Enzymatic Activity
pIC50: −log10 of the molar value.
Give measured pIC50 for each item. Keep answers brief.

Please state pIC50 for every compound in the list that follows.
1. N#Cc1cn2c(NCc3c(F)ccc4c3CCO4)ncc(-c3cnc(C4CC4)nc3)c2n1
2. Cc1cc(-c2cnc(NCc3c(F)ccc4c3CCO4)n3cc(C#N)nc23)ccn1
3. Cc1cc(-c2cnc(NCc3c(F)ccc4c3OCO4)n3cc(C#N)nc23)n(C)n1
4. Cc1cc(-c2cnc(NCc3c(F)ccc4occc34)n3cc(C#N)nc23)n(C)n1

Data returned:
["> 7.00", "6.30 to 7.00", "6.30 to 7.00", "> 7.00"]

----------
- Tested on: histone H3 Lys27 trimethylation in Pfeiffer cells expressing mutant EZH2 (A677G)
- ASSAY METHOD TEXT: Tri-Methyl Histone H3 (Lys 27) sandwich ELISA in Pfeiffer cells
- Assay type: cell-based
- CONDITION SET: Homo sapiens, 96 hours incubation, read-out: IC50 (nM), Inhibition of EZH2-mediated Histone H3 Trimethylation
QUANTITY NAME: IC50

Examples from the recorded data:
# STRUCTURE, QUANTITY NAME, RESULT
measured = [
    ("[2H]C([2H])(Nc1ncc(-c2ccc(CN(C)C)cc2)c2nc(C#N)cn12)c1c(F)ccc2c1CCO2", "IC50", "100 to 500 nM"),
    ("N#Cc1cn2c(NCc3c(F)ccc4c3CCO4)ncc(-c3cnc(C4CC4)nc3)c2n1", "IC50", "< 100 nM"),
    ("Cn1nc(C(=O)O)cc1-c1cnc(NCc2c(F)ccc3c2CCO3)n2cc(C#N)nc12", "IC50", "< 100 nM"),
    ("Cc1cc(-c2cnc(NCc3c(F)ccc4c3CCO4)n3cc(C#N)nc23)ccn1", "IC50", "100 to 500 nM"),
]

Here is the next item to consider.
# IC50 measured on histone H3 Lys27 trimethylation in Pfeiffer cells expressing mutant EZH2 (A677G) for item Cc1cc(-c2cnc(NCc3c(F)ccc4c3OCO4)n3cc(C#N)nc23)n(C)n1 = 100 to 500 nM

----------
- Test system: Karpas 422 cells expressing mutant EZH2 (Y641N)
- ASSAY METHOD TEXT: Karpas 422 cell viability, CTG (Cell Titre Glo) assay
- Type: cell-based, human
- CONDITION SET: Day 4, 7 or 11 measured, time point of the table not stated, read-out: IC50 (nM), Inhibiting Proliferation of Cells Expressing an Activating Mutant Form of EZH2
QUANTITY NAME: IC50

# STRUCTURE, IC50
measured = [
    ("Cc1nc(CN(C)C)ccc1-c1cnc(NCc2c(F)ccc3c2CCO3)n2cc(C#N)nc12", "≤ 250 nM"),
]

Reported IC50 for CN(C)C(=O)c1cc(-c2cnc(NCc3c(F)ccc4c3CCO4)n3cc(C#N)nc23)n(C)n1 was 250 to 500 nM
